Hello, the source for this data is patent US10647677B2, in case you need it.

log10 of Kd by entry:
- Measured target: myeloperoxidase (MPO) (Homo sapiens, UniProt P05164)
- Construct: purchased
- Sequence (P05164 49-745): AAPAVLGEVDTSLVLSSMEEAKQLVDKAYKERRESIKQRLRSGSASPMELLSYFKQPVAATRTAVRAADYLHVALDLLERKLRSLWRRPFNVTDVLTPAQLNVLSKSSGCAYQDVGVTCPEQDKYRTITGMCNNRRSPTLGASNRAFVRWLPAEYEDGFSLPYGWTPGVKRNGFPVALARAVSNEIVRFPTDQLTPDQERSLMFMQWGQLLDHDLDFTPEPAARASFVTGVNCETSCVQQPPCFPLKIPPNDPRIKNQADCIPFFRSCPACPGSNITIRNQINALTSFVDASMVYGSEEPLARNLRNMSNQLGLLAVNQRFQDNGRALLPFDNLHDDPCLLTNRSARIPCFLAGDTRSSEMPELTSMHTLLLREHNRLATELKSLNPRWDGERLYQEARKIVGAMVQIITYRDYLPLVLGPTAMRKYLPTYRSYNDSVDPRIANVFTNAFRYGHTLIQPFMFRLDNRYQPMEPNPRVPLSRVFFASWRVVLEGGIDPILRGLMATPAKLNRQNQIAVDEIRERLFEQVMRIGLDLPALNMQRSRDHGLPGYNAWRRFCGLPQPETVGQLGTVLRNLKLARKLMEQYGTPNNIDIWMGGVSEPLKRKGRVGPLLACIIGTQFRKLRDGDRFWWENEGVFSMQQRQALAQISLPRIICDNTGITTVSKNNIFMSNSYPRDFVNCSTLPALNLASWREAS
- Procedure summary: Surface plasmon resonance (Biacore 3000) affinity on MPO
- Assay type: binding
- Particulars: Table 1; SPR at 25° C.
Readout name: log10 of Kd (log10 of the value in nM)

{"Compound": "CCOC(=O)c1cnc2cc(Cl)ccc2c1NC(C)CCCN(CC)CCO (stereo not drawn)", "log10 of Kd": 0.88}
{"Compound": "CCN(CCO)CCCC(C)Nc1ccnc2cc(Cl)ccc12 (single isomer, unassigned) [CB133]", "log10 of Kd": 2.85}
{"Compound": "CCN(CCO)CCCC(C)Nc1c(C(F)(F)F)cnc2cc(Cl)ccc12 (stereo not drawn)", "log10 of Kd": 1.15}
{"Compound": "CCN(CCO)CCCC(C)Nc1c(C(=O)C2CC2)cnc2cc(Cl)ccc12 (stereo not drawn)", "log10 of Kd": 1.56}
{"Compound": "CCN(CCO)CCCC(C)Nc1c(Cl)cnc2cc(Cl)ccc12 (stereo not drawn) [CB072]", "log10 of Kd": 0.04}
{"Compound": "CCN(CCO)CCCC(C)Nc1ccnc2cc(Cl)ccc12 (stereo not drawn) [Commercial HCQ, hydroxychloroquine]", "log10 of Kd": 2.85}
{"Compound": "CCN(CCO)CCCC(C)Nc1c(C(=O)C(F)(F)F)cnc2cc(Cl)ccc12 (stereo not drawn)", "log10 of Kd": 1.78}
{"Compound": "CCN(CCO)CCCC(C)Nc1c(C#N)cnc2cc(Cl)ccc12 (stereo not drawn)", "log10 of Kd": 1.85}
{"Compound": "CCN(CCO)CCCC(C)Nc1c(Cl)cnc2cc(Cl)ccc12 (stereo not drawn) [CB137]", "log10 of Kd": 0.82}
